Assignment: determine reported Mean % WT Binding for the given binders.
target or system: human CD33 L210A (human, UniProt P20138 18-364)
Sequence (P20138 18-364 L210A limits assumed): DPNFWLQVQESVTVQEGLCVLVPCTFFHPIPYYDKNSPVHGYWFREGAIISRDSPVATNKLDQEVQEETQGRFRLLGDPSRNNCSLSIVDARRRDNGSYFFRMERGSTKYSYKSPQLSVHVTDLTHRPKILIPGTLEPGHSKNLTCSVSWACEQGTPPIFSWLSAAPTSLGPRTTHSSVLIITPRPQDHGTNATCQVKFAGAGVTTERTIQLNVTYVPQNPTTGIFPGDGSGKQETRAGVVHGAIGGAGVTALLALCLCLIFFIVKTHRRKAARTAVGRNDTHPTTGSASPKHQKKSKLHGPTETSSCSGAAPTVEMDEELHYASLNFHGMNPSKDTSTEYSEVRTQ
test name: alanine scan, flow cytometry, HEK293-T;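 also: antibody binding to each alanine-substituted CD33 mutant expressed transiently in HEK293-T, read as fluorescence minus background, mean of duplicates, relative to wild-type CD33 set as 100%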
Numbers only, in %.

Guide cases for Mean % WT Binding, answers given:
Refmab #1 (antibody, V domains shown, In the alanine scan antibodies were used as IgG or Fab; also called hP67.6) VH: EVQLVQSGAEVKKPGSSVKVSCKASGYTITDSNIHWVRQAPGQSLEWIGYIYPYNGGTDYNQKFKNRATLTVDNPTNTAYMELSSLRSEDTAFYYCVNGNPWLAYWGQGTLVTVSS VL: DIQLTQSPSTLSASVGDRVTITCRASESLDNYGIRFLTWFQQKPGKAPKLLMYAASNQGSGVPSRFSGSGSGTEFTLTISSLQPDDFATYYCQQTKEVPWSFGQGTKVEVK : 93
Refmab #2 (antibody, V domains shown, In the alanine scan antibodies were used as IgG or Fab) VH: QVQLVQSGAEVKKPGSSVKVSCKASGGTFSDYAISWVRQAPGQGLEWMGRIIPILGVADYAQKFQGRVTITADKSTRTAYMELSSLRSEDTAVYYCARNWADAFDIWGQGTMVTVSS VL: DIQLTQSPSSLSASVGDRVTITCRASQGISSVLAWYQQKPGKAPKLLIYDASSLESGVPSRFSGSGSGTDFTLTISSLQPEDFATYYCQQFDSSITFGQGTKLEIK : 98.2

# map each binder to its Mean % WT Binding
1. Refmab #4 (antibody, V domains shown, In the alanine scan antibodies were used as IgG or Fab) VH: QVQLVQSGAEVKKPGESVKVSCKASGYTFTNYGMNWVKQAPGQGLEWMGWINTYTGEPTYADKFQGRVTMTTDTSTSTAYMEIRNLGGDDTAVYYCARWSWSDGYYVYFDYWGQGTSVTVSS VL: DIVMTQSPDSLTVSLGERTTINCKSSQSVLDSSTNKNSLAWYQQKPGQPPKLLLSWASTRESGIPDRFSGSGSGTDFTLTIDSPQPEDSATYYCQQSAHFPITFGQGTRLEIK
2. Refmab #3 (antibody, V domains shown, In the alanine scan antibodies were used as IgG or Fab) VH: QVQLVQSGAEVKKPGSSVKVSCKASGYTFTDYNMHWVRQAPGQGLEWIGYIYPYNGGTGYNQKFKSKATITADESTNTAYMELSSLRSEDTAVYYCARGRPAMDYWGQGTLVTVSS VL: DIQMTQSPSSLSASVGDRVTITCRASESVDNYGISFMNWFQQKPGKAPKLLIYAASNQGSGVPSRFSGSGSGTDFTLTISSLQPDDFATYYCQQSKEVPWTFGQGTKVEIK

1: 92.3; 2: 84
